Biological target: hMOR-1 (Homo sapiens, UniProt P35372)
Construct: purchased Amersham Biosciences; host or cells: stably transfected CHO cells (membrane preparation)
Sequence (P35372 whole entry): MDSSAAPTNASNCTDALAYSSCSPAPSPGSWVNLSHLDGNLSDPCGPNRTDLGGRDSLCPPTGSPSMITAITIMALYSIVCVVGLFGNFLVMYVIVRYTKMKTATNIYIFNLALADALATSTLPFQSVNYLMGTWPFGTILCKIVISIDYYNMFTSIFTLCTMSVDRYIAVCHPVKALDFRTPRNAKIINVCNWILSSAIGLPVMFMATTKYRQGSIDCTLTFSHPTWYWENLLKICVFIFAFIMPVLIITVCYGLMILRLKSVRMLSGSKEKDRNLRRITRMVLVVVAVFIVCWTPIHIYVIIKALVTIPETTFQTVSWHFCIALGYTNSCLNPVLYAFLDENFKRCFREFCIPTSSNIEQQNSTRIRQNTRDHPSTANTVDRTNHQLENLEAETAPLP
Assay: Opioid receptor competitive binding assay, MOR (3H-DAMGO)
Details: Ki MOR, Table 3; 3H-DAMGO, hMOR-1 stably transfected into CHO cells; errors 95% confidence interval
Collected log10 of Ki values appear next to each entry.
Units before log transform: nM; reported quantity: Ki; transform: log10.

In: State its log10 of Ki: NC(Cc1ccc(O)cc1)C(O)C/C=C/C(O)C(Cc1ccccc1)C(=O)NCCc1ccccc1 (single isomer, unassigned) [(S,S,R,R)-10]
Out: 1.46

In: State its log10 of Ki: NC(=O)C(Cc1ccccc1)NC(=O)C(Cc1ccccc1)C(O)CCCC(O)C(N)Cc1ccc(O)cc1 (single isomer, unassigned) [(S,S,R,R)-6]
Out: 1.98

In: Return the recorded log10 of Ki value; entry: NC(=O)C(Cc1ccccc1)NC(=O)C(Cc1ccccc1)C(O)/C=C\CC(O)C(N)Cc1ccc(O)cc1 (single isomer, unassigned) [(S,R,S,R)-9]
Out: 2.41

In: Quote log10 of Ki reported for NC(Cc1ccc(O)cc1)C(O)C/C=C/C(O)C(Cc1ccccc1)C(=O)NC(CO)Cc1ccccc1 (single isomer, unassigned) [(S,R,R,R)-11] please.
Out: 1.45

In: Give the reported value of log10 of Ki for this record: NC(=O)C(Cc1ccccc1)NC(=O)C(Cc1ccccc1)C(O)/C=C\CC(O)C(N)Cc1ccc(O)cc1 (single isomer, unassigned) [(S,S,S,R)-9]
Out: 2.57

New cases:
In: Look up log10 of Ki of C=CC(O)C(Cc1ccccc1)NC(=O)C(Cc1ccccc1)C(O)/C=C/CC(O)C(N)Cc1ccc(O)cc1 (single isomer, unassigned) [(S,R,R,R)-12] and report it.
Out: 1.57

In: Retrieve log10 of Ki measured for NC(Cc1ccc(O)cc1)C(O)C/C=C/C(O)C(Cc1ccccc1)C(=O)NC(CO)Cc1ccccc1 (single isomer, unassigned) [(S,S,S,R)-11] and print it.
Out: 1.00
